Where do these numbers come from? They come from patent US11795460B2.

- Tested on: TTR
- ASSAY_REMARKS: TTR editing in primary human hepatocytes transfected with Spy Cas9 mRNA and dgRNAs (Table 9)
- Format: cell-based
- MEASUREMENT_CONTEXT: dgRNA co-transfected with Spy Cas9 mRNA (SEQ ID NO:2)
Label t when Avg % Insert >= 7%; otherwise f.

Here are 4 sequences together with their reported answers.
In [3]: df
Out[3]:
                           sequence_content  classification
0  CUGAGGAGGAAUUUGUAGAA (tested as dual guide RNA, chemistry not given here) [CR003364]               f
1  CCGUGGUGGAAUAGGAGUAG (tested as dual guide RNA, chemistry not given here) [CR003386]               t
2  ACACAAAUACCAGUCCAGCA (tested as dual guide RNA, chemistry not given here) [CR003339]               f
3  CAGAGGACACUUGGAUUCAC (tested as dual guide RNA, chemistry not given here) [CR003343]               t

Task: For this sequence, is measured Avg % Insert 7% or higher? CCCCUACUCCUAUUCCACCA (tested as dual guide RNA, chemistry not given here) [CR003385]
Result: t

Task: Now this one: AAUAGGAGUAGGGGCUCAGC (tested as dual guide RNA, chemistry not given here) [CR003384]
Result: f
